The measured values listed here are drawn from patent US12486269B2.

# tested-on: UniProtKB P30988
# Sequence (P30988 25-474): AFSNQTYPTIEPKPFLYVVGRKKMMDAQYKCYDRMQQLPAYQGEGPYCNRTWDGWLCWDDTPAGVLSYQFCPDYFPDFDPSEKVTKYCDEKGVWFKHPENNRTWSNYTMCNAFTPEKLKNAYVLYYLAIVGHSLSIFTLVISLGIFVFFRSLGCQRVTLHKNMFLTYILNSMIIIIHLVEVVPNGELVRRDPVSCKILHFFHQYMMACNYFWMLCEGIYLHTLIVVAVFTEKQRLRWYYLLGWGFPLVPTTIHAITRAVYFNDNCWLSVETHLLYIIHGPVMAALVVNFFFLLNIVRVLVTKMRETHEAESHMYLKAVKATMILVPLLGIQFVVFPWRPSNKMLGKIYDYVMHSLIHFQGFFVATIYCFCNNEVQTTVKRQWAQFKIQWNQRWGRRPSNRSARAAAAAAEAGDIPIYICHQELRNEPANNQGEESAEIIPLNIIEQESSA
# assay-comment: Calcitonin Receptor (CTR) cAMP Assay
# experimental-context: COS7-human CTR Clone #2 stable cell line, cAMP dynamic 2 kit, 30 min; read-out: Calcitonin Receptor cAMP Stimulation Activity: EC50
test-readout: EC50 (nM)
Quick reminder: number only, in nM, skip the unit.

>  <molecular-string>
N#Cc1ccc(Cn2c(=O)oc3cc(-c4c(-c5n[nH]c(=O)o5)c(CCc5ccc(F)cc5)nc5c4S(=O)(=O)N4CCC[C@@H]54)ccc32)nc1

>  <unit-spec>
nM

>  <EC50>
0.786

$$$$
>  <molecular-string>
O=C1c2c(nc(CCc3ccc(F)cc3)c(-c3n[nH]c(=O)o3)c2-c2cc3ccnc(N[C@@H]4CCOc5ccccc54)c3s2)[C@@H]2CCCN12

>  <unit-spec>
nM

>  <EC50>
1.19

$$$$
>  <molecular-string>
COc1c(F)ccc2c1CC[C@H]2Nc1cccc2nc(-c3c4c(nc(CCc5ccc(F)cc5)c3-c3n[nH]c(=O)o3)C35CC(CN3C4=O)C5)sc12

>  <unit-spec>
nM

>  <EC50>
0.738

$$$$

Ask: Fill in the recorded EC50 for this compound, with UniProtKB P30988 as test system: COc1cccc2c1CC[C@H]2Nc1nccc2cc(-c3c(-c4n[nH]c(=O)o4)c(CCc4ccc(F)cc4)nc4c3S(=O)(=O)C[C@H]4C(C)C)sc12
Result: 0.591
